tested on: 8645; assay: IC50 cell viability (Alamar Blue, 96 h)
Please use T for IC50 cell viability under 300 nM and F for everything else, ties included.

Worked examples, 5 compounds total:
{"COMPOUND": "CC[C@@]1(O)C(=O)OCc2c1cc1n(c2=O)Cc2cc3c(CN(C)C)c(O)ccc3nc2-1", "ASSIGNED CATEGORY": "T"}
{"COMPOUND": "C/C(=C\\c1csc(C)n1)[C@@H]1C[C@@H]2O[C@]2(C)CCC[C@H](C)[C@H](O)[C@@H](C)C(=O)C(C)(C)[C@@H](O)CC(=O)O1", "ASSIGNED CATEGORY": "T"}
{"COMPOUND": "CC(=O)O[C@@]12CO[C@@H]1C[C@H](O)[C@@]1(C)C(=O)[C@H](O)C3=C(C)[C@@H](OC(=O)[C@H](O)[C@@H](NC(=O)OC(C)(C)C)c4ccccc4)C[C@@](O)([C@@H](OC(=O)c4ccccc4)[C@H]21)C3(C)C", "ASSIGNED CATEGORY": "T"}
{"COMPOUND": "COc1cc(Nc2ncc3c(n2)-c2ccc(Cl)cc2C(c2c(F)cccc2OC)=NC3)ccc1C(=O)O", "ASSIGNED CATEGORY": "F"}
{"COMPOUND": "O=C1c2c(O)ccc(O)c2C(=O)c2c(NCCNCCO)ccc(NCCNCCO)c21", "ASSIGNED CATEGORY": "T"}

Identify whether the compound O=C(CCCCCCC(=O)Nc1ccccc1)NO records IC50 cell viability below 300 nM.
F

Check if IC50 cell viability falls below 300 nM for Nc1ccn([C@@H]2O[C@H](CO)[C@@H](O)C2(F)F)c(=O)n1 .
T

Does the reported IC50 cell viability of CN(Cc1cnc2nc(N)nc(N)c2n1)c1ccc(C(=O)N[C@@H](CCC(=O)O)C(=O)O)cc1 [Methotrexate] stay below 300 nM?
T
